- protocolDetails: MTT assay of cytostatic/cytotoxic effect in Huh 5-2 cells
- particulars: human
measurementName: CC50

Need CC50 of C/C=C/C[C@@H](C)[C@@H](O)[C@H]1C(=O)N[C@@H](CC)C(=O)N(C)CC(=O)N(C)[C@@H]([C@@H](C)CC)C(=O)N[C@@H](C(C)C)C(=O)N(C)[C@@H](CC(C)C)C(=O)N[C@@H](C)C(=O)N[C@H](C)C(=O)N(C)[C@@H](CC(C)C)C(=O)N(C)[C@@H](CC(C)C)C(=O)N(C)[C@@H](C(C)C)C(=O)N1C [[MeIle]^4-CsA] , thanks. 14 µg/mL

====

- protocolDetails: MTT assay of cytostatic/cytotoxic effect in Huh 5-2 cells
- particulars: human, Huh 5-2 cells
measurementName: CC50

Need CC50 of C/C=C/C[C@@H](C)[C@@H](O)[C@H]1C(=O)N[C@@H](CC)C(=O)N(C)[C@H](C)C(=O)N(CC)[C@@H](C(C)C)C(=O)N[C@@H](C(C)C)C(=O)N(C)[C@@H](CC(C)C)C(=O)N[C@@H](C)C(=O)N[C@H](C)C(=O)N(C)[C@@H](CC(C)C)C(=O)N(C)[C@@H](CC(C)C)C(=O)N(C)[C@@H](C(C)C)C(=O)N1C [[D-MeAla]^3-[EtVal]^4-CsA] , thanks. > 27 µg/mL
